# system_name: 3-oxo-5-alpha-steroid 4-dehydrogenase 1 (Homo sapiens, UniProt P18405)
# Sequence (P18405 whole entry): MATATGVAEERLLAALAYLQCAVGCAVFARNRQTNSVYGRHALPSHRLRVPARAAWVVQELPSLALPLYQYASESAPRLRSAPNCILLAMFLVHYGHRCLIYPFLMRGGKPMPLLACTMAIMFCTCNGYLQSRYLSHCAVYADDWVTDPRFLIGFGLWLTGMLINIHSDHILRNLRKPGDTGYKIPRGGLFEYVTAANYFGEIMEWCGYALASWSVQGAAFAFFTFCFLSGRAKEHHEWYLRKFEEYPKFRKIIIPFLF
# method_notes: Apparent inhibition constant against recombinant human Steroid 5-alpha-reductase type I expressed in CHO cells
# stated_conditions: read-out: Ki app
property_measured: Ki

smiles_text: COc1cc2cc(C(=O)O)[nH]c2cc1OCc1ccccc1
property_measured: Ki
value: 460 nM

smiles_text: O=C(O)c1cc2cc(OCc3ccccc3)ccc2[nH]1
property_measured: Ki
value: > 2500 nM

smiles_text: Cn1c(C(=O)O)cc2cc(OCc3ccccc3)ccc21
property_measured: Ki
value: > 2500 nM

smiles_text: COc1cc2cc(C(=O)O)n(C)c2cc1OCc1ccccc1
property_measured: Ki
value: 500 nM

smiles_text: O=C(O)c1cc2c(OCc3ccccc3)cccc2[nH]1
property_measured: Ki
value: > 2500 nM
